Entry source: the NIST ThermoML archive (doi:10.1016/j.fluid.2016.05.030)

Details: 343.15 K; 101.33 kPa; Liquid; Vibrating tube method
Record form. Attribute: mass density. Fill in for each entry.
Numeric answer only, unit kg/m3 assumed.

[ask] Bench note: what mass density did CCCc1cccc[n+]1CC.O=S(=O)([N-]S(=O)(=O)C(F)(F)F)C(F)(F)F show?
[reply] 1405.4

[ask] Subsequent entry: CCCCCCCc1cccc[n+]1CC.O=S(=O)([N-]S(=O)(=O)C(F)(F)F)C(F)(F)F
[reply] 1282.5

[ask] Subsequent entry: CCCCCCCCc1cccc[n+]1CC.O=S(=O)([N-]S(=O)(=O)C(F)(F)F)C(F)(F)F
[reply] 1259.9

[ask] Subsequent entry: CCCCCc1cccc[n+]1CC.O=S(=O)([N-]S(=O)(=O)C(F)(F)F)C(F)(F)F
[reply] 1331.5

[ask] Subsequent entry: CCCCc1cccc[n+]1CC.O=S(=O)([N-]S(=O)(=O)C(F)(F)F)C(F)(F)F
[reply] 1368.5

[ask] Subsequent entry: CCCCCCc1cccc[n+]1CC.O=S(=O)([N-]S(=O)(=O)C(F)(F)F)C(F)(F)F
[reply] 1305.6

[ask] Subsequent entry: CCc1cccc[n+]1CC.O=S(=O)([N-]S(=O)(=O)C(F)(F)F)C(F)(F)F [1,2-diethylpyridin-1-ium bis((trifluoromethyl)sulfonyl)imide]
[reply] 1428.3

====

Settings: 318.15 K; 101.33 kPa; Liquid; Vibrating tube method
ATTRIBUTE_MEASURED: mass density (kg/m3)
Numeric answer only, unit kg/m3 assumed.

[ask] Bench note: what mass density did CCCCCCc1cccc[n+]1CC.O=S(=O)([N-]S(=O)(=O)C(F)(F)F)C(F)(F)F show?
[reply] 1326.8

[ask] Subsequent entry: CCCCCCCc1cccc[n+]1CC.O=S(=O)([N-]S(=O)(=O)C(F)(F)F)C(F)(F)F
[reply] 1303.6

[ask] Subsequent entry: CCCCCCCCc1cccc[n+]1CC.O=S(=O)([N-]S(=O)(=O)C(F)(F)F)C(F)(F)F
[reply] 1280.6

[ask] Subsequent entry: CCCCCc1cccc[n+]1CC.O=S(=O)([N-]S(=O)(=O)C(F)(F)F)C(F)(F)F
[reply] 1353.4

[ask] Subsequent entry: CCCc1cccc[n+]1CC.O=S(=O)([N-]S(=O)(=O)C(F)(F)F)C(F)(F)F
[reply] 1428.4

[ask] Subsequent entry: CCCCc1cccc[n+]1CC.O=S(=O)([N-]S(=O)(=O)C(F)(F)F)C(F)(F)F
[reply] 1390.9

[ask] Subsequent entry: CCc1cccc[n+]1CC.O=S(=O)([N-]S(=O)(=O)C(F)(F)F)C(F)(F)F [1,2-diethylpyridin-1-ium bis((trifluoromethyl)sulfonyl)imide]
[reply] 1451.6

====

Conditions: 333.15 K; 101.33 kPa; Liquid; Vibrating tube method
ATTRIBUTE_MEASURED: mass density (kg/m3)
Numeric answer only, unit kg/m3 assumed.

[ask] Bench note: what mass density did CCCc1cccc[n+]1CC.O=S(=O)([N-]S(=O)(=O)C(F)(F)F)C(F)(F)F show?
[reply] 1414.6

[ask] Subsequent entry: CCCCc1cccc[n+]1CC.O=S(=O)([N-]S(=O)(=O)C(F)(F)F)C(F)(F)F
[reply] 1377.4

[ask] Subsequent entry: CCCCCCc1cccc[n+]1CC.O=S(=O)([N-]S(=O)(=O)C(F)(F)F)C(F)(F)F
[reply] 1313.9

[ask] Subsequent entry: CCc1cccc[n+]1CC.O=S(=O)([N-]S(=O)(=O)C(F)(F)F)C(F)(F)F [1,2-diethylpyridin-1-ium bis((trifluoromethyl)sulfonyl)imide]
[reply] 1437.5

[ask] Subsequent entry: CCCCCCCc1cccc[n+]1CC.O=S(=O)([N-]S(=O)(=O)C(F)(F)F)C(F)(F)F
[reply] 1290.9

[ask] Subsequent entry: CCCCCCCCc1cccc[n+]1CC.O=S(=O)([N-]S(=O)(=O)C(F)(F)F)C(F)(F)F
[reply] 1268.1

[ask] Subsequent entry: CCCCCc1cccc[n+]1CC.O=S(=O)([N-]S(=O)(=O)C(F)(F)F)C(F)(F)F
[reply] 1340.2

====

Conditions: 303.15 K; 101.33 kPa; Liquid; Vibrating tube method
Record form. Attribute: mass density. Fill in for each entry.
Numeric answer only, unit kg/m3 assumed.

[ask] Bench note: what mass density did CCCCCCc1cccc[n+]1CC.O=S(=O)([N-]S(=O)(=O)C(F)(F)F)C(F)(F)F show?
[reply] 1339.9

[ask] Subsequent entry: CCCCCCCc1cccc[n+]1CC.O=S(=O)([N-]S(=O)(=O)C(F)(F)F)C(F)(F)F
[reply] 1316.5

[ask] Subsequent entry: CCCCCCCCc1cccc[n+]1CC.O=S(=O)([N-]S(=O)(=O)C(F)(F)F)C(F)(F)F
[reply] 1293.2

[ask] Subsequent entry: CCc1cccc[n+]1CC.O=S(=O)([N-]S(=O)(=O)C(F)(F)F)C(F)(F)F [1,2-diethylpyridin-1-ium bis((trifluoromethyl)sulfonyl)imide]
[reply] 1465.8

[ask] Subsequent entry: CCCCCc1cccc[n+]1CC.O=S(=O)([N-]S(=O)(=O)C(F)(F)F)C(F)(F)F
[reply] 1366.6

[ask] Subsequent entry: CCCCc1cccc[n+]1CC.O=S(=O)([N-]S(=O)(=O)C(F)(F)F)C(F)(F)F
[reply] 1404.5

[ask] Subsequent entry: CCCc1cccc[n+]1CC.O=S(=O)([N-]S(=O)(=O)C(F)(F)F)C(F)(F)F
[reply] 1442.5

====

Settings: 303.15 K; 101.33 kPa; Liquid; Concentric cylinders viscometry
// 0.0 strictly below 80 mPa·s in viscosity; 1.0 otherwise

[ask] Determine whether this molecule has viscosity no lower than 80 mPa·s: CCCCc1cccc[n+]1CC.O=S(=O)([N-]S(=O)(=O)C(F)(F)F)C(F)(F)F
[reply] 1.0

[ask] Subsequent entry: CCCCCCCCc1cccc[n+]1CC.O=S(=O)([N-]S(=O)(=O)C(F)(F)F)C(F)(F)F
[reply] 1.0

[ask] Subsequent entry: CCCCCc1cccc[n+]1CC.O=S(=O)([N-]S(=O)(=O)C(F)(F)F)C(F)(F)F
[reply] 1.0

[ask] Subsequent entry: CCc1cccc[n+]1CC.O=S(=O)([N-]S(=O)(=O)C(F)(F)F)C(F)(F)F [1,2-diethylpyridin-1-ium bis((trifluoromethyl)sulfonyl)imide]
[reply] 0.0

[ask] Subsequent entry: CCCCCCc1cccc[n+]1CC.O=S(=O)([N-]S(=O)(=O)C(F)(F)F)C(F)(F)F
[reply] 1.0

[ask] Subsequent entry: CCCCCCCc1cccc[n+]1CC.O=S(=O)([N-]S(=O)(=O)C(F)(F)F)C(F)(F)F
[reply] 1.0

====

Settings: 348.15 K; 101.33 kPa; Liquid; Vibrating tube method
ATTRIBUTE_MEASURED: mass density (kg/m3)
Numeric answer only, unit kg/m3 assumed.

[ask] Bench note: what mass density did CCCCCCc1cccc[n+]1CC.O=S(=O)([N-]S(=O)(=O)C(F)(F)F)C(F)(F)F show?
[reply] 1301.4

[ask] Subsequent entry: CCc1cccc[n+]1CC.O=S(=O)([N-]S(=O)(=O)C(F)(F)F)C(F)(F)F [1,2-diethylpyridin-1-ium bis((trifluoromethyl)sulfonyl)imide]
[reply] 1423.7

[ask] Subsequent entry: CCCCCCCc1cccc[n+]1CC.O=S(=O)([N-]S(=O)(=O)C(F)(F)F)C(F)(F)F
[reply] 1278.3

[ask] Subsequent entry: CCCCCCCCc1cccc[n+]1CC.O=S(=O)([N-]S(=O)(=O)C(F)(F)F)C(F)(F)F
[reply] 1255.8

[ask] Subsequent entry: CCCCCc1cccc[n+]1CC.O=S(=O)([N-]S(=O)(=O)C(F)(F)F)C(F)(F)F
[reply] 1327.1

[ask] Subsequent entry: CCCCc1cccc[n+]1CC.O=S(=O)([N-]S(=O)(=O)C(F)(F)F)C(F)(F)F
[reply] 1364.1

[ask] Subsequent entry: CCCc1cccc[n+]1CC.O=S(=O)([N-]S(=O)(=O)C(F)(F)F)C(F)(F)F
[reply] 1400.9

====

Conditions: 353.15 K; 101.33 kPa; Liquid; Vibrating tube method
ATTRIBUTE_MEASURED: mass density (kg/m3)
Numeric answer only, unit kg/m3 assumed.

[ask] Bench note: what mass density did CCCc1cccc[n+]1CC.O=S(=O)([N-]S(=O)(=O)C(F)(F)F)C(F)(F)F show?
[reply] 1396.4

[ask] Subsequent entry: CCCCCCc1cccc[n+]1CC.O=S(=O)([N-]S(=O)(=O)C(F)(F)F)C(F)(F)F
[reply] 1297.1

[ask] Subsequent entry: CCCCc1cccc[n+]1CC.O=S(=O)([N-]S(=O)(=O)C(F)(F)F)C(F)(F)F
[reply] 1359.7

[ask] Subsequent entry: CCCCCc1cccc[n+]1CC.O=S(=O)([N-]S(=O)(=O)C(F)(F)F)C(F)(F)F
[reply] 1322.8

[ask] Subsequent entry: CCCCCCCCc1cccc[n+]1CC.O=S(=O)([N-]S(=O)(=O)C(F)(F)F)C(F)(F)F
[reply] 1251.7

[ask] Subsequent entry: CCCCCCCc1cccc[n+]1CC.O=S(=O)([N-]S(=O)(=O)C(F)(F)F)C(F)(F)F
[reply] 1274.2

[ask] Subsequent entry: CCc1cccc[n+]1CC.O=S(=O)([N-]S(=O)(=O)C(F)(F)F)C(F)(F)F [1,2-diethylpyridin-1-ium bis((trifluoromethyl)sulfonyl)imide]
[reply] 1419.1
